# Test system: Pasteurella multocida PM 10775 (080130003051, BRD field isolate)
# Experiment: MIC, broth-microdilution (CLSI VET01-A4), strain PM 10775
# Format: cell-based
# Condition Parameters: Pasteurella multocida strain PM 10775, broth-microdilution; unit assumed
Measurement Name: MIC PM 10775

# Compound, Result Value
measured = [
    ("CSC(C)(C)[C@H](NC(=O)c1ccc(C#Cc2ccc(CNCc3ccccn3)cc2)cc1)C(=O)NO [Compound 249]", "≤ 0.1 µg/mL"),
    ("CC[C@H](C)[C@H](NC(=O)c1ccc(C#Cc2ccc(CNCCN(C)C)cc2)cc1)C(=O)NO [Compound 116]", "0.4 µg/mL"),
    ("CC(C)[C@H](NC(=O)c1ccc(C#Cc2ccc(CNCC#N)cc2)cc1)C(=O)NO [Compound 204]", "≤ 0.1 µg/mL"),
    ("CC(C)[C@H](NC(=O)c1ccc(C#Cc2ccc(CN3CCN(c4ccccc4)CC3)cc2)cc1)C(=O)NO [Compound 135]", "≤ 0.1 µg/mL"),
]

API: the following record is the query input.
QUERY: Can you look up the measured MIC PM 10775 of CON=C(C)C(NC(=O)c1ccc(C#Cc2ccc(CNCc3ccncc3)cc2)cc1)C(=O)NO (centres unmarked) [Compound 415] for me?
RESULT: ≤ 0.1 µg/mL

* * *

Items are presented alongside their recorded MIC PM 10775.
# Test system: Pasteurella multocida PM 10775 (080130003051, BRD field isolate)
# Experiment: MIC, broth-microdilution (CLSI VET01-A4), strain PM 10775
# Format: cell-based
# Condition Parameters: Pasteurella multocida strain PM 10775, broth-microdilution; unit assumed

Use these answered entries as a reference point.
# Compound, Result Value
data = [
    ("CSC(C)(C)C(NC(=O)c1ccc(C#Cc2ccc(CNCc3ccccc3)s2)cc1)C(=O)NO (stereo not drawn) [Compound 304]", "≤ 0.1 µg/mL"),
    ("CC[C@H](C)[C@H](NC(=O)c1ccc(C#Cc2ccc(CNC(C)C)cc2)cc1)C(=O)NO [Compound 141]", "0.2 µg/mL"),
    ("CC(C)[C@H](NC(=O)c1ccc(C#Cc2ccc(CNCc3ccccc3)cc2)cc1)C(=O)NO [Compound 104]", "≤ 0.1 µg/mL"),
    ("CC(C)([C@H](NC(=O)c1ccc(C#Cc2ccc(CNCc3ccccn3)nc2)cc1)C(=O)NO)S(C)(=O)=O [Compound 353]", "0.4 µg/mL"),
    ("CC(C)[C@H](NC(=O)c1ccc(C#Cc2ccc(CNCc3cccnc3)cc2)cc1)C(=O)NO [Compound 167]", "≤ 0.1 µg/mL"),
]

QUERY: What measured MIC PM 10775 goes with C=CCNCc1ccc(C#Cc2ccc(C(=O)N[C@H](C(=O)NO)C(C)(C)SC)cc2)cn1 [Compound 336] ?
RESULT: ≤ 0.1 µg/mL

QUERY: Would you mind telling me what MIC PM 10775 value was observed for CC[C@H](C)[C@H](NC(=O)c1ccc(C#Cc2ccc(CN3CCCC3)cc2)cc1)C(=O)NO [Compound 174] ?
RESULT: ≤ 0.1 µg/mL

QUERY: Which MIC PM 10775 is listed for CC(C)([C@H](NC(=O)c1ccc(C#Cc2ccc(CNCc3ccccn3)s2)cc1)C(=O)NO)S(C)(=O)=O [Compound 320] ?
RESULT: ≤ 0.1 µg/mL
